Tested on: Candida albicans
MEASUREMENT_DESCRIPTION: Antimicrobial activity against Candida albicans ATCC 2091 by disk diffusion method
Type: functional
Activity calls are given as the source filed them. The rule behind the calls is not given here.
REPORTED_ENDPOINT: diameter of the inhibition zone (DIZ)

COMPOUND	TARGET_SYSTEM	VALUE_MEASURED
COC(=O)C(O)(Cc1nc2sccn2c1[N+](=O)[O-])C(F)(F)F (centres undefined)	Candida albicans	inactive
CCOC(=O)/C=C/c1nc2sccn2c1[N+](=O)[O-]	Candida albicans	inactive
O=[N+]([O-])c1c(CBr)nc2sccn12	Candida albicans	17 mm
CN1C(=O)C(O)(Cc2nc3sccn3c2[N+](=O)[O-])c2ccccc21 (centres undefined)	Candida albicans	inactive
C[C@@H]1[C@H](O)[C@@H](C)/C=C/C=C/C=C/C=C/C=C/C=C/C=C/[C@H](O[C@@H]2O[C@H](C)[C@@H](O)[C@H](N)[C@@H]2O)C[C@@H]2O[C@](O)(C[C@@H](O)C[C@@H](O)[C@H](O)CC[C@@H](O)C[C@@H](O)CC(=O)O[C@H]1C)C[C@H](O)[C@H]2C(=O)O	Candida albicans	22 mm
CC(=O)N1C(=O)C(O)(Cc2nc3sccn3c2[N+](=O)[O-])c2ccccc21 (centres undefined)	Candida albicans	inactive
O=C1Nc2ccccc2C1(O)Cc1nc2sccn2c1[N+](=O)[O-] (centres undefined)	Candida albicans	inactive
Cc1nc2sccn2c1[N+](=O)[O-]	Candida albicans	inactive
O=[N+]([O-])c1c(CCl)nc2sccn12	Candida albicans	16 mm

* * *

Test system: Staphylococcus aureus
MEASUREMENT_DESCRIPTION: Antimicrobial activity against Staphylococcus aureus ATCC 6538 assessed as minimum microbial concentration after 24 hrs by microplate assay
Type: functional
Measured Activity values are reported for all entries that follow.
REPORTED_ENDPOINT: Activity (µg/mL)

> print(dat)
                                   molecule  value.measured
1  CC(=O)N1C(=O)C(O)(Cc2nc3sccn3c2[N+](=O)[O-])c2ccccc21 (centres undefined)            62.5
2             O=[N+]([O-])c1c(CBr)nc2sccn12             250
3  O=C1Nc2ccccc2C1(O)Cc1nc2sccn2c1[N+](=O)[O-] (centres undefined)             500
4             O=[N+]([O-])c1c(CCl)nc2sccn12             250

* * *

Test system: Pseudomonas aeruginosa
MEASUREMENT_DESCRIPTION: Antimicrobial activity against Pseudomonas aeruginosa ATCC 15442 by disk diffusion method
Format: functional
Active and inactive are the calls of the source. No cut-off for these calls is given here.
REPORTED_ENDPOINT: diameter of the inhibition zone (DIZ)

> print(dat)
                                   molecule  value.measured
1  CC(=O)N1C(=O)C(O)(Cc2nc3sccn3c2[N+](=O)[O-])c2ccccc21 (stereo not drawn)        inactive
2  COC(=O)C(O)(Cc1nc2sccn2c1[N+](=O)[O-])C(F)(F)F (stereo not drawn)        inactive
3  CN1C(=O)C(O)(Cc2nc3sccn3c2[N+](=O)[O-])c2ccccc21 (stereo not drawn)        inactive
4             O=[N+]([O-])c1c(CBr)nc2sccn12           11 mm
5  O=C1Nc2ccccc2C1(O)Cc1nc2sccn2c1[N+](=O)[O-] (stereo not drawn)            9 mm
6                 Cc1nc2sccn2c1[N+](=O)[O-]        inactive
7             O=[N+]([O-])c1c(CCl)nc2sccn12           11 mm
8     CCOC(=O)/C=C/c1nc2sccn2c1[N+](=O)[O-]        inactive
